Catalogue of interaction score readings, one per entry.
Molecular target: T1, 4H536-AA
T1 chain: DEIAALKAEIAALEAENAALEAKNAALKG
Assay: two-hybrid library CCmax;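 further: natural log of median RNA to DNA barcode read ratio; higher means stronger binding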
Settings: mean of both orientations
METRIC: interaction score

- DENAALEAKIAALKAKIAALKAEIAALEG [4H1385-AA]: 1.04
- DKNAALEAKIAALEAKNAALEAKIAALEG [4H3381-AA]: -1.65
- DKIAALKAENAALEAEIAALKAEIAALKG [4H2698-AA]: -1.49
- DKIAALEAENAALKAKIAALEAEIAALKG [4H2274-AA]: -1.54
- DKNAALEAEIAALKAENAALKAKIAALEG [4H3165-AA]: -1.27
- DENAALKAKIAALKAENAALEAKIAALEG [4H1877-AA]: -0.101
- DKIAALEAKIAALEAENAALKAEIAALKG [4H2330-AA]: -1.33
- DKIAALEAEIAALEAKNAALKAKIAALEG [4H2109-AA]: 0.839
- DEIAALEAKNAALKAKIAALEAKIAALEG [4H485-AA]: -1.29
- DKIAALKAKIAALEAKNAALEAEIAALEG [4H2865-AA]: 1.01
- DKNAALKAKIAALEAENAALKAEIAALEG [4H3865-AA]: -0.909
- DKIAALEAKNAALEAKIAALKAEIAALEG [4H2473-AA]: -1.67
- DENAALKAKIAALKAEIAALEAKNAALKG [4H1864-AA]: 0.437
- DENAALKAEIAALKAENAALKAEIAALKG [4H1626-AA]: -1.73
- DKNAALEAKIAALKAENAALEAEIAALKG [4H3410-AA]: -1.39
- DENAALEAKIAALEAENAALKAKIAALKG [4H1310-AA]: -1.27
- DKNAALKAEIAALEAEIAALEAKIAALKG [4H3590-AA]: -0.687
- DKNAALEAEIAALEAKIAALKAKNAALKG [4H3120-AA]: 1.51
